- System tested: Skp1-FBXW7 complex (Homo sapiens, UniProt P63208+Q969H0)
- Construct: human FBXW7 (263-707) with an N-terminal hexa-histidine (His6) tag; His6 (N, cleaved yes); made in house; host or cells: E. coli Rosetta (DE3)
- Sequence (Q969H0 263-707): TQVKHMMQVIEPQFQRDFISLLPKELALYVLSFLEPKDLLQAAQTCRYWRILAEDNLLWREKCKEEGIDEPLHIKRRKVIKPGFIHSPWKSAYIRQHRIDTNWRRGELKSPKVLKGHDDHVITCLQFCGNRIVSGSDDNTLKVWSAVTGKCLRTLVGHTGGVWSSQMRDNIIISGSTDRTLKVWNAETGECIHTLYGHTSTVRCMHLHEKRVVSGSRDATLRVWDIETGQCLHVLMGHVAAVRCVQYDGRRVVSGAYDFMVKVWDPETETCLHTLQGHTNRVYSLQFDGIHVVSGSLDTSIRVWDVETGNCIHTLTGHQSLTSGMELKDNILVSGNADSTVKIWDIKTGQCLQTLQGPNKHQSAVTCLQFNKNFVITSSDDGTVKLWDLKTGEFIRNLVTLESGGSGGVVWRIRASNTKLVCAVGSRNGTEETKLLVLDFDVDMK
- Sequence (P63208 1-149 partner limits assumed): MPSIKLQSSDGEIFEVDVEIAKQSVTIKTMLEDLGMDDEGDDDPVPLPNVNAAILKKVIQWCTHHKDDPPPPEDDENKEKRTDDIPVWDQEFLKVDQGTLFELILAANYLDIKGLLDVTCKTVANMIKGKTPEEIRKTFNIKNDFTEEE
- Experiment summary: Fluorescence polarization competitive protein-peptide binding assay
- Assay setup: FP competition of unlabeled peptide against 50 nM CF-labeled CCNE peptide at ~60-80% complex formation; 20 mM Tris pH 8.0, 100 mM NaCl, 0.05% Brij35P, 2 mM TCEP; value with error
Where a SMILES comes first, the peptide text is derived from it. [ ]: non-standard residue; d: D form. pT = C[C@@H](OP(=O)(O)O)[C@H](N)C(=O)O
Provide the reported Kd of each item.
Just the number in nM, nothing appended.

# Kd (compound: CC[C@H](C)[C@H](NC(=O)[C@@H]1CCCN1C(=O)[C@@H]1CCCN1C(=O)[C@@H](NC(=O)[C@@H](NC(=O)[C@@H]1CCCN1C(=O)[C@@H]1CCCN1C(=O)[C@@H](NC(=O)[C@H](CC(C)C)NC(=O)[C@H](CO)NC(=O)CNC(=O)[C@H](CO)NC(=O)[C@H](CO)NC(=O)[C@@H](N)Cc1c[nH]cn1)[C@@H](C)OP(=O)(O)O)C(C)C)[C@@H](C)OP(=O)(O)O)C(=O)N[C@H](C(=O)O)[C@@H](C)O [JAZF1] (H-HSSGSL[pT]PPV[pT]PPIT-OH) ) is 29.7

# Kd (compound: CSCC[C@H](NC(=O)[C@@H]1CCCN1C(=O)[C@@H]1CCCN1C(=O)[C@@H](NC(=O)[C@@H]1CCCN1C(=O)[C@H](CC(N)=O)NC(=O)CNC(=O)[C@@H]1CCCN1C(=O)[C@@H](NC(=O)[C@@H]1CCCN1)C(C)C)[C@@H](C)OP(=O)(O)O)C(=O)N[C@H](C(=O)N1CCC[C@H]1C(=O)NCC(=O)N[C@@H](CO)C(=O)N[C@@H](CO)C(=O)O)[C@@H](C)OP(=O)(O)O [ZMIZ1] (H-PVPGNP[pT]PPM[pT]PGSS-OH) ) is 52.3

====

- System tested: Skp1-FBXW7 complex (Homo sapiens, UniProt P63208+Q969H0)
- Construct: human FBXW7 (263-707) with an N-terminal hexa-histidine (His6) tag; His6 (N, cleaved yes); made in house; host or cells: E. coli Rosetta (DE3)
- Experiment summary: Fluorescence polarization competitive protein-peptide binding assay
- Assay setup: FP based quantitative in vitro binding assay; result in words
Where a SMILES comes first, the peptide text is derived from it. [ ]: non-standard residue; d: D form. pT = C[C@@H](OP(=O)(O)O)[C@H](N)C(=O)O; pS = N[C@@H](COP(=O)(O)O)C(=O)O
Experimental readout: binding affinity to purified FBXW7 in vitro

Completed entries (count: 5):
{"Molecule": "CC(C)C[C@H](NC(=O)[C@@H](NC(=O)[C@H](CO)NC(=O)[C@H](CC(N)=O)NC(=O)[C@@H](N)CO)C(C)C)C(=O)N[C@@H](CC(N)=O)C(=O)N[C@H](C(=O)N1CCC[C@H]1C(=O)N1CCC[C@H]1C(=O)N[C@H](C(=O)N[C@H](C(=O)N1CCC[C@H]1C(=O)N[C@@H](CCC(=O)O)C(=O)N[C@@H](CO)C(=O)N1CCC[C@H]1C(=O)O)[C@@H](C)OP(=O)(O)O)[C@@H](C)O)[C@@H](C)OP(=O)(O)O [ARID4B] (H-SNSVLN[pT]PPT[pT]PESP-OH)", "Result value": "low nanomolar"}
{"Molecule": "CSCC[C@H](NC(=O)CNC(=O)[C@H](Cc1c[nH]cn1)NC(=O)[C@@H](N)[C@@H](C)O)C(=O)N[C@@H](CCSC)C(=O)N[C@@H](CC(C)C)C(=O)N[C@H](C(=O)N1CCC[C@H]1C(=O)N1CCC[C@H]1C(=O)N[C@@H](CO)C(=O)N[C@@H](COP(=O)(O)O)C(=O)N1CCC[C@H]1C(=O)N[C@@H](CC(C)C)C(=O)N[C@@H](CCC(=O)O)C(=O)N[C@@H](CC(C)C)C(=O)O)[C@@H](C)OP(=O)(O)O [KLF4] (H-THGMML[pT]PPS[pS]PLEL-OH)", "Result value": "low nanomolar"}
{"Molecule": "CSCC[C@H](NC(=O)[C@@H]1CCCN1C(=O)[C@@H](NC(=O)[C@H](CCC(=O)O)NC(=O)[C@@H]1CCCN1C(=O)[C@@H]1CCCN1C(=O)[C@@H](NC(=O)[C@H](Cc1ccc(O)cc1)NC(=O)[C@H](CC(C)C)NC(=O)[C@H](CC(N)=O)NC(=O)[C@H](CC(C)C)NC(=O)[C@H](CCCCN)NC(=O)[C@@H](N)Cc1ccccc1)[C@@H](C)OP(=O)(O)O)[C@@H](C)OP(=O)(O)O)C(=O)N[C@@H](CCC(=O)O)C(=O)N1CCC[C@H]1C(=O)O [KAT6B] (H-FKLNLY[pT]PPE[pT]PMEP-OH)", "Result value": "low nanomolar"}
{"Molecule": "CC[C@H](C)[C@H](NC(=O)[C@@H]1CCCN1C(=O)[C@@H]1CCCN1C(=O)[C@@H](NC(=O)[C@@H](NC(=O)[C@@H]1CCCN1C(=O)[C@@H]1CCCN1C(=O)[C@@H](NC(=O)[C@H](CC(C)C)NC(=O)[C@H](CO)NC(=O)CNC(=O)[C@H](CO)NC(=O)[C@H](CO)NC(=O)[C@@H](N)Cc1c[nH]cn1)[C@@H](C)OP(=O)(O)O)C(C)C)[C@@H](C)OP(=O)(O)O)C(=O)N[C@H](C(=O)O)[C@@H](C)O [JAZF1] (H-HSSGSL[pT]PPV[pT]PPIT-OH)", "Result value": "low nanomolar"}
{"Molecule": "CSCC[C@H](NC(=O)[C@@H]1CCCN1C(=O)[C@@H]1CCCN1C(=O)[C@@H](NC(=O)[C@@H]1CCCN1C(=O)[C@H](CC(N)=O)NC(=O)CNC(=O)[C@@H]1CCCN1C(=O)[C@@H](NC(=O)[C@@H]1CCCN1)C(C)C)[C@@H](C)OP(=O)(O)O)C(=O)N[C@H](C(=O)N1CCC[C@H]1C(=O)NCC(=O)N[C@@H](CO)C(=O)N[C@@H](CO)C(=O)O)[C@@H](C)OP(=O)(O)O [ZMIZ1] (H-PVPGNP[pT]PPM[pT]PGSS-OH)", "Result value": "low nanomolar"}

// below: binding affinity to purified FBXW7 in vitro requested for another molecule
Item CC(C)C[C@H](NC(=O)[C@@H]1CCCN1C(=O)[C@H](CCCCN)NC(=O)[C@H](Cc1ccccc1)NC(=O)CNC(=O)[C@@H](N)CO)C(=O)N[C@H](C(=O)N1CCC[C@H]1C(=O)N1CCC[C@H]1C(=O)N[C@H](C(=O)N[C@H](C(=O)N1CCC[C@H]1C(=O)N[C@@H](CC(C)C)C(=O)N[C@@H](CO)C(=O)N1CCC[C@H]1C(=O)O)[C@@H](C)OP(=O)(O)O)[C@@H](C)O)[C@@H](C)OP(=O)(O)O [ETV5] (H-SGFKPL[pT]PPT[pT]PLSP-OH) was tested on Skp1-FBXW7 complex (Homo sapiens, UniProt P63208+Q969H0); the reported binding affinity to purified FBXW7 in vitro is low nanomolar

====

- System tested: Skp1-FBXW7 complex (Homo sapiens, UniProt P63208+Q969H0)
- Construct: human FBXW7 (263-707) with an N-terminal hexa-histidine (His6) tag; His6 (N, cleaved yes); made in house; host or cells: E. coli Rosetta (DE3)
- Experiment summary: Fluorescence polarization competitive protein-peptide binding assay
- Assay setup: FP competition of unlabeled peptide against 50 nM CF-labeled CCNE peptide at ~60-80% complex formation; 20 mM Tris pH 8.0, 100 mM NaCl, 0.05% Brij35P, 2 mM TCEP; value with error
Where a SMILES comes first, the peptide text is derived from it. [ ]: non-standard residue; d: D form. pT = C[C@@H](OP(=O)(O)O)[C@H](N)C(=O)O; pS = N[C@@H](COP(=O)(O)O)C(=O)O
Experimental readout: pKd
# pKd: negative log10 of molar concentration; output just the value

# pKd (molecule: CC(C)C[C@H](NC(=O)[C@@H]1CCCN1C(=O)[C@H](CCCCN)NC(=O)[C@H](Cc1ccccc1)NC(=O)CNC(=O)[C@@H](N)CO)C(=O)N[C@H](C(=O)N1CCC[C@H]1C(=O)N1CCC[C@H]1C(=O)N[C@H](C(=O)N[C@H](C(=O)N1CCC[C@H]1C(=O)N[C@@H](CC(C)C)C(=O)N[C@@H](CO)C(=O)N1CCC[C@H]1C(=O)O)[C@@H](C)OP(=O)(O)O)[C@@H](C)O)[C@@H](C)OP(=O)(O)O [ETV5] (H-SGFKPL[pT]PPT[pT]PLSP-OH) ) is 7.79

# pKd (molecule: CC(C)C[C@H](NC(=O)[C@@H](NC(=O)[C@H](CO)NC(=O)[C@H](CC(N)=O)NC(=O)[C@@H](N)CO)C(C)C)C(=O)N[C@@H](CC(N)=O)C(=O)N[C@H](C(=O)N1CCC[C@H]1C(=O)N1CCC[C@H]1C(=O)N[C@H](C(=O)N[C@H](C(=O)N1CCC[C@H]1C(=O)N[C@@H](CCC(=O)O)C(=O)N[C@@H](CO)C(=O)N1CCC[C@H]1C(=O)O)[C@@H](C)OP(=O)(O)O)[C@@H](C)O)[C@@H](C)OP(=O)(O)O [ARID4B] (H-SNSVLN[pT]PPT[pT]PESP-OH) ) is 7.75

# pKd (molecule: CSCC[C@H](NC(=O)[C@@H]1CCCN1C(=O)[C@@H](NC(=O)[C@H](CCC(=O)O)NC(=O)[C@@H]1CCCN1C(=O)[C@@H]1CCCN1C(=O)[C@@H](NC(=O)[C@H](Cc1ccc(O)cc1)NC(=O)[C@H](CC(C)C)NC(=O)[C@H](CC(N)=O)NC(=O)[C@H](CC(C)C)NC(=O)[C@H](CCCCN)NC(=O)[C@@H](N)Cc1ccccc1)[C@@H](C)OP(=O)(O)O)[C@@H](C)OP(=O)(O)O)C(=O)N[C@@H](CCC(=O)O)C(=O)N1CCC[C@H]1C(=O)O [KAT6B] (H-FKLNLY[pT]PPE[pT]PMEP-OH) ) is 8.55

# pKd (molecule: CSCC[C@H](NC(=O)CNC(=O)[C@H](Cc1c[nH]cn1)NC(=O)[C@@H](N)[C@@H](C)O)C(=O)N[C@@H](CCSC)C(=O)N[C@@H](CC(C)C)C(=O)N[C@H](C(=O)N1CCC[C@H]1C(=O)N1CCC[C@H]1C(=O)N[C@@H](CO)C(=O)N[C@@H](COP(=O)(O)O)C(=O)N1CCC[C@H]1C(=O)N[C@@H](CC(C)C)C(=O)N[C@@H](CCC(=O)O)C(=O)N[C@@H](CC(C)C)C(=O)O)[C@@H](C)OP(=O)(O)O [KLF4] (H-THGMML[pT]PPS[pS]PLEL-OH) ) is 7.96
